# System: LOX IMVI melanoma
# METHOD: NCI-60 one-dose screen, 48 h (100 = growth as untreated, 0 = no growth, -100 = all killed)
# MEASUREMENT CONTEXT: 10 µM unless noted
The panel holds about 83,000 compounds, 20% with a hit somewhere; the sample as a whole holds those more often.
Mark no (0) for growth values under 20%, and yes (1) for everything at or above.

Solved cases (5 shown):
INSERT INTO assay_data (molecule, qualitative_label) VALUES
  ('COC(=O)CNc1nc(N(C)O)nc(N(C)O)n1', 'yes (1)'),
  ('COC(=O)C(N)CSC(c1ccccc1)(c1ccccc1)c1ccccc1 (stereo not given)', 'yes (1)'),
  ('COc1cc2c(cc1-c1c(C)noc1C)ncc1nc(C3CCCCC3)n([C@@H](C)COC(F)F)c12', 'no (0)'),
  ('O=S(=O)(NCCNc1cc(-c2cn(-c3ccccc3)nc2-c2cccc(O)c2)ccn1)c1ccccc1', 'yes (1)'),
  ('Cc1cc(N2CCN(C)CC2)nc(N(CCNc2ccnc3cc(Cl)ccc23)Cc2ccco2)n1', 'no (0)');

Request: Does "Fc1ccc2c(c1)c(-c1nc(-c3c[nH]c4ncccc34)cs1)cn2CCCN1CCCCC1" have a reported growth of at least 20%?
Response: yes (1)

Request: Does "COc1cccc(-c2nn(-c3ccccc3)cc2-c2ccnc(NCCCN)c2)c1" have a reported growth of at least 20%?
Response: yes (1)

Request: Does "COc1cc(-c2cc3ncccc3c3nc(N)c4cccnc4c23)cc(OC)c1OC" have a reported growth of at least 20%?
Response: yes (1)

Request: Does "O=C(NO)c1ccc(Cn2c(=O)n(CCc3ccc(O)cc3)c(=O)c3ccccc32)cc1" have a reported growth of at least 20%?
Response: yes (1)

Request: Does "CCc1cccc(CC)c1NC(=O)c1sc2nc3c(cc2c1N)CCCC3" have a reported growth of at least 20%?
Response: yes (1)

###

# Test system: MOLT-4 leukemia
# METHOD: NCI-60 one-dose screen, 48 h
# MEASUREMENT CONTEXT: 10 µM unless noted
The panel holds about 83,000 compounds, 20% with a hit somewhere; the sample as a whole holds those more often. The source made the active and inactive calls. How the source made its calls: active means growth percent below 10; inactive means the rest.
Pick one: active, inactive

INSERT INTO results (molecule, experimental_target, qualitative_label) VALUES
  ('Cc1ccc(-c2nc3ccc(Cl)cc3c(=O)n2N2C(=O)CSC2c2ccccc2Cl)cc1 (centres undefined)', 'MOLT-4 leukemia', 'inactive');

Request: Could you kindly confirm the outcome this assay logged for "C=C(C)[C@@H]1CC[C@]2(C(=O)N3CCCNCC3)CC[C@]3(C)[C@H](CC[C@@H]4[C@@]5(C)CCC(=O)C(C)(C)[C@@H]5CC[C@]43C)[C@@H]12" ?
Response: inactive

Request: Could you kindly confirm the outcome this assay logged for "N#C/C(=C\c1ccc(-c2cccc(C(F)(F)F)c2)o1)c1nc(-c2ccco2)cs1" ?
Response: inactive

Request: Could you kindly confirm the outcome this assay logged for "Cc1cc(Cl)nc(N(CCCNc2ccnc3cc(Cl)ccc23)Cc2ccco2)n1" ?
Response: active

Request: Could you kindly confirm the outcome this assay logged for "N=C(N)N=Nc1ccc(O)cc1" ?
Response: inactive

Request: Could you kindly confirm the outcome this assay logged for "CN(C)c1ccc(N=C2C=CC(=O)C=C2)cc1" ?
Response: inactive

Request: Could you kindly confirm the outcome this assay logged for "COc1ccc(C(=O)/C=C/c2cc(-c3cc(OC)c(OC)c(OC)c3)n[nH]2)cc1OC" ?
Response: active

Request: Could you kindly confirm the outcome this assay logged for Cc1csc(-c2ccc3c(c2)COC3(CCCN(C)C)c2ccc(F)cc2)c1 (centres undefined) ?
Response: active
